Biological target: T1, IL-18 binding protein (IL-18BP) (UniProt O95998 31-194)
T1 sequence (looked up): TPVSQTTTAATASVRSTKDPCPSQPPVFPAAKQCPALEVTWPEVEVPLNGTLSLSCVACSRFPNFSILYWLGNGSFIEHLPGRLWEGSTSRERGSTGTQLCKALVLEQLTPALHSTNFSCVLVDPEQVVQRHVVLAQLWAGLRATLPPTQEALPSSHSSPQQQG
Experiment: cell-based or functional assay
Each entry gets false if its Activity, +100 nM BP, DF-5000003 stays under 0.2, and true if its Activity, +100 nM BP, DF-5000003 is 0.2 or above.

[[record]]
binder = "IL-18 variant G3P, E6S, K53N, D54Y, S55P, T63I, N91K, R104H (ligand) YFPKLSSKLSVIRNLNDQVLFIDQGNRPLFEDMTDSDMRDNAPRTIFIISMYNYPQPRGMAVIISVKSEKISTLSSENKIISFKEMNPPDKIKDTKSDIIFFQHSVPGHDNKMQFESSSYEGYFLASEKERDLFKLILKKEDELGDRSIMFTVQNED"
class = "false"

[[record]]
binder = "IL-18 variant G3P, E6K, K53N, D54S, S55P, T63S, N91S, R104Q (ligand) YFPKLKSKLSVIRNLNDQVLFIDQGNRPLFEDMTDSDMRDNAPRTIFIISMYNSPQPRGMAVSISVKSEKISTLSSENKIISFKEMNPPDSIKDTKSDIIFFQQSVPGHDNKMQFESSSYEGYFLASEKERDLFKLILKKEDELGDRSIMFTVQNED"
class = "false"

[[record]]
binder = "IL-18 variant G3Q, E6S, S55V, T63A, N91T (ligand) YFQKLSSKLSVIRNLNDQVLFIDQGNRPLFEDMTDSDMRDNAPRTIFIISMYKDVQPRGMAVAISVKSEKISTLSSENKIISFKEMNPPDTIKDTKSDIIFFQRSVPGHDNKMQFESSSYEGYFLASEKERDLFKLILKKEDELGDRSIMFTVQNED"
class = "true"

[[record]]
binder = "IL-18 variant G3P, E6V, K53A, D54W, S55P, T63S, N91L, R104K, Q154R (ligand) YFPKLVSKLSVIRNLNDQVLFIDQGNRPLFEDMTDSDMRDNAPRTIFIISMYAWPQPRGMAVSISVKSEKISTLSSENKIISFKEMNPPDLIKDTKSDIIFFQKSVPGHDNKMQFESSSYEGYFLASEKERDLFKLILKKEDELGDRSIMFTVRNED"
class = "false"

[[record]]
binder = "IL-18 variant G3I, E6Q, N91M, R104Y (ligand) YFIKLQSKLSVIRNLNDQVLFIDQGNRPLFEDMTDSDMRDNAPRTIFIISMYKDSQPRGMAVTISVKSEKISTLSSENKIISFKEMNPPDMIKDTKSDIIFFQYSVPGHDNKMQFESSSYEGYFLASEKERDLFKLILKKEDELGDRSIMFTVQNED"
class = "true"

[[record]]
binder = "IL-18 variant E6D, D54T, S55W, T63S, N91S, R104T (ligand) YFGKLDSKLSVIRNLNDQVLFIDQGNRPLFEDMTDSDMRDNAPRTIFIISMYKTWQPRGMAVSISVKSEKISTLSSENKIISFKEMNPPDSIKDTKSDIIFFQTSVPGHDNKMQFESSSYEGYFLASEKERDLFKLILKKEDELGDRSIMFTVQNED"
class = "false"

[[record]]
binder = "IL-18 variant G3P, E6K, D54R, S55P, T63A, N91V (ligand) YFPKLKSKLSVIRNLNDQVLFIDQGNRPLFEDMTDSDMRDNAPRTIFIISMYKRPQPRGMAVAISVKSEKISTLSSENKIISFKEMNPPDVIKDTKSDIIFFQRSVPGHDNKMQFESSSYEGYFLASEKERDLFKLILKKEDELGDRSIMFTVQNED"
class = "true"


The reported numbers originate from patent US20240182536A1.
